tested on: HCoV-OC43 gRNA and sgRNA; assay type: binding; conditions: type n_48_v; 48 hpi; no-probe control on infected cells
measurement_kind: background (unweighted spectral count, no-probe control)
Please reply with the value in numeric form only.

IN: Look up background (unweighted spectral count, no-probe control) for this molecule: HNRNPA2B1 (protein, UniProt P22626 1-353, looked up) Heterogeneous nuclear …: MEKTLETVPLERKKREKEQFRKLFIGGLSFETTEESLRNYYEQWGKLTDCVVMRDPASKRSRGFGFVTFSSMAEVDAAMAARPHSIDGRVVEPKRAVAREESGKPGAHVTVKKLFVGGIKEDTEEHHLRDYFEEYGKIDTIEIITDRQSGKKRGFGFVTFDDHDPVDKIVLQKYHTINGHNAEVRKALSRQEMQEVQSSRSGRGGNFGFGDSRGGGGNFGPGPGSNFRGGSDGYGSGRGFGDGYNGYGGGPGGGNFGGSPGYGGGRGGYGGGGPGYGNQGGGYGGGYDNYGGGNYGSGNYNDFGNYNQQPSNYGPMKSGNFGGSRNMGGPYGGGNYGPGGSGGSGGYGGRSRY
OUT: 7

IN: Look up background (unweighted spectral count, no-probe control) for this molecule: CIRBP: host protein, UniProt Q14011 (protein, UniProt Q14011 1-172, looked up) Cold-inducible RNA-binding …: MASDEGKLFVGGLSFDTNEQSLEQVFSKYGQISEVVVVKDRETQRSRGFGFVTFENIDDAKDAMMAMNGKSVDGRQIRVDQAGKSSDNRSRGYRGGSAGGRGFFRGGRGRGRGFSRGGGDRGYGGNRFESRSGGYGGSRDYYSSRSQSGGYSDRSSGGSYRDSYDSYATHNE
OUT: 1

IN: Look up background (unweighted spectral count, no-probe control) for this molecule: SRSF10 (protein, UniProt O75494 1-262, looked up) Serine/arginine-rich splicing …: MSRYLRPPNTSLFVRNVADDTRSEDLRREFGRYGPIVDVYVPLDFYTRRPRGFAYVQFEDVRDAEDALHNLDRKWICGRQIEIQFAQGDRKTPNQMKAKEGRNVYSSSRYDDYDRYRRSRSRSYERRRSRSRSFDYNYRRSYSPRNSRPTGRPRRSRSHSDNDRFKHRNRSFSRSKSNSRSRSKSQPKKEMKAKSRSRSASHTKTRGTSKTDSKTHYKSGSRYEKESRKKEPPRSKSQSRSQSRSRSKSRSRSWTSPKSSGH
OUT: 1

IN: Look up background (unweighted spectral count, no-probe control) for this molecule: RBMX (protein, UniProt P38159 1-391, looked up) RNA-binding motif protein, X …: MVEADRPGKLFIGGLNTETNEKALEAVFGKYGRIVEVLLMKDRETNKSRGFAFVTFESPADAKDAARDMNGKSLDGKAIKVEQATKPSFESGRRGPPPPPRSRGPPRGLRGGRGGSGGTRGPPSRGGHMDDGGYSMNFNMSSSRGPLPVKRGPPPRSGGPPPKRSAPSGPVRSSSGMGGRAPVSRGRDSYGGPPRREPLPSRRDVYLSPRDDGYSTKDSYSSRDYPSSRDTRDYAPPPRDYTYRDYGHSSSRDDYPSRGYSDRDGYGRDRDYSDHPSGGSYRDSYESYGNSRSAPPTRGPPPSYGGSSRYDDYSSSRDGYGGSRDSYSSSRSDLYSSGRDRVGRQERGLPPSMERGYPPPRDSYSSSSRGAPRGGGRGGSRSDRGGGRSRY
OUT: 1

IN: Look up background (unweighted spectral count, no-probe control) for this molecule: CNBP: host protein, UniProt P62633 (protein, UniProt P62633 2-177, looked up) CCHC-type zinc finger nucleic …: SSNECFKCGRSGHWARECPTGGGRGRGMRSRGRGGFTSDRGFQFVSSSLPDICYRCGESGHLAKDCDLQEDACYNCGRGGHIAKDCKEPKREREQCCYNCGKPGHLARDCDHADEQKCYSCGEFGHIQKDCTKVKCYRCGETGHVAINCSKTSEVNCYRCGESGHLARECTIEATA
OUT: 2

IN: Look up background (unweighted spectral count, no-probe control) for this molecule: RALY: host protein, UniProt Q9UKM9 (protein, UniProt Q9UKM9 2-306, looked up) RNA-binding protein Raly: SLKLQASNVTNKNDPKSINSRVFIGNLNTALVKKSDVETIFSKYGRVAGCSVHKGYAFVQYSNERHARAAVLGENGRVLAGQTLDINMAGEPKPDRPKGLKRAASAIYSGYIFDYDYYRDDFYDRLFDYRGRLSPVPVPRAVPVKRPRVTVPLVRRVKTNVPVKLFARSTAVTTSSAKIKLKSSELQAIKTELTQIKSNIDALLSRLEQIAAEQKANPDGKKKGDGGGAGGGGGGGGSGGGGSGGGGGGGSSRPPAPQENTTSEAGLPQGEARTRDDGDEEGLLTHSEEELEHSQDTDADDGALQ
OUT: 2

IN: Look up background (unweighted spectral count, no-probe control) for this molecule: HNRNPH3 (protein, UniProt P31942 1-346, looked up) Heterogeneous nuclear …: MDWVMKHNGPNDASDGTVRLRGLPFGCSKEEIVQFFQGLEIVPNGITLTMDYQGRSTGEAFVQFASKEIAENALGKHKERIGHRYIEIFRSSRSEIKGFYDPPRRLLGQRPGPYDRPIGGRGGYYGAGRGSMYDRMRRGGDGYDGGYGGFDDYGGYNNYGYGNDGFDDRMRDGRGMGGHGYGGAGDASSGFHGGHFVHMRGLPFRATENDIANFFSPLNPIRVHIDIGADGRATGEADVEFVTHEDAVAAMSKDKNNMQHRYIELFLNSTPGGGSGMGGSGMGGYGRDGMDNQGGYGSVGRMGMGNNYSGGYGTPDGLGGYGRGGGGSGGYYGQGGMSGGGWRGMY
OUT: 2

IN: Look up background (unweighted spectral count, no-probe control) for this molecule: HNRNPA1 (protein, UniProt P09651 1-372, looked up) Heterogeneous nuclear …: MSKSESPKEPEQLRKLFIGGLSFETTDESLRSHFEQWGTLTDCVVMRDPNTKRSRGFGFVTYATVEEVDAAMNARPHKVDGRVVEPKRAVSREDSQRPGAHLTVKKIFVGGIKEDTEEHHLRDYFEQYGKIEVIEIMTDRGSGKKRGFAFVTFDDHDSVDKIVIQKYHTVNGHNCEVRKALSKQEMASASSSQRGRSGSGNFGGGRGGGFGGNDNFGRGGNFSGRGGFGGSRGGGGYGGSGDGYNGFGNDGGYGGGGPGYSGGSRGYGSGGQGYGNQGSGYGGSGSYDSYNNGGGGGFGGGSGSNFGGGGSYNDFGNYNNQSSNFGPMKGGNFGGRSSGPYGGGGQYFAKPRNQGGYGGSSSSSSYGSGRRF
OUT: 7
